Some compounds, each annotated with its measured cAMP production activity (%).
biological target: human PTH1 receptor (Homo sapiens); test: In vitro cAMP signal activity in HKRK-B7 cells (LLC-PK1 cells overexpressing the human PTH1 receptor); format: cell-based; details: HKRK-B7 cells; compound at 1×10^−3 M; cAMP produced as percentage of that produced by hPTH(1-34) at 100 nM
Sequence (Q03431 27-593): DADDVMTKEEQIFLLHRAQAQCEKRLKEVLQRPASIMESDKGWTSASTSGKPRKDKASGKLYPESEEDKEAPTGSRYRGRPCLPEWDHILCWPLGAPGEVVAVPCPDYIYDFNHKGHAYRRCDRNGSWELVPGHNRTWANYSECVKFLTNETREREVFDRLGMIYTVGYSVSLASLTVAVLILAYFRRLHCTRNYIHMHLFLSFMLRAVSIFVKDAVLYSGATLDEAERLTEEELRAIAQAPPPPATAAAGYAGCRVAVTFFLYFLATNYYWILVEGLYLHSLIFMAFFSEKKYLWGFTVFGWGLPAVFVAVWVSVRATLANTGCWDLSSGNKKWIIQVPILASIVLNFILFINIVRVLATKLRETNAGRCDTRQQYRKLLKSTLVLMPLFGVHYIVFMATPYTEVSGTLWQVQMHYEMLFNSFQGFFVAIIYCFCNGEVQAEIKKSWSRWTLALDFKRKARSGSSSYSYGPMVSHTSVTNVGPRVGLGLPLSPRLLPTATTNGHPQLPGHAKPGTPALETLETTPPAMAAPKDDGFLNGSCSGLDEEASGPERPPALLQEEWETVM

compound	cAMP production activity (%)
[2H]C([2H])([2H])C([2H])([2H])C1=CC[C@H](C2=NC3(CCN([S@TB18](=O)(=O)CCc4c(C)cc(N(C)C(N)=O)cc4C)CC3)C(=O)N2)CC1 [Compound 1149]	98%
Cc1cc(N(C)C(N)=O)cc(C)c1CCS(=O)(=O)N1CCC2(CC1)N=C(C1CCCC(C)C1)NC2=O (centres unmarked) [Compound 1297]	98%
Cc1cc(NCC2CNC(=O)O2)ccc1/C=C/S(=O)(=O)N1CCC2(CC1)N=C(C1CCCCC1)NC2=O (centres unmarked) [Compound 207]	36%
Cc1cc(N2C[C@H](O)CC2=O)ccc1CCS(=O)(=O)N1CCC2(CC1)N=C(c1cccc(C(F)(F)F)c1)NC2=O [Compound 297]	91%
Cc1cc(C(=O)N(C)C)ccc1CCS(=O)(=O)N1CCC2(CC1)N=C(C(C)(C)Oc1ccc(Cl)cc1Cl)NC2=O [Compound 175]	73%
O=C1NC(C2CCCCC2)=NC12CCN(S(=O)(=O)c1ccc(Br)s1)CC2 [Compound 65]	65%
CCCCCCCCCC1=NC2(CCN(S(=O)(=O)CCc3c(C)cc(C(=O)N4CCC4)cc3C)CC2)C(=O)N1 [Compound 982]	96%
O=C1NC(c2ccc(Cl)cc2Cl)=NC12CCN(S(=O)(=O)c1ccc(Cl)cc1)CC2 [Compound 44]	25%
Cc1ccccc1/C=C/S(=O)(=O)N1CCC2(CC1)N=C(C1CCCCC1)NC2=O [Compound 186]	51%
Cc1cc(C(=O)N(C)C)ccc1CCS(=O)(=O)N1CCC2(CC1)N=C(c1ccccc1OC(F)(F)F)NC2=O [Compound 105]	78%
CCCCCCCCCCCCCC1=NC2(CCN([S@TB18](=O)(=O)CCc3c(C)cc(N(C)C(N)=O)cc3C)CC2)C(=O)N1 [Compound 1140]	55%
Cc1cc(OC[C@H](O)CO)cc(C)c1/C=C/S(=O)(=O)N1CCC2(CC1)N=C(c1ccc(F)c(OC(F)(F)F)c1)NC2=O [Compound 1164]	4.7%
Cc1cc(N(C)C(N)=O)cc(Cl)c1/C=C/S(=O)(=O)N1CCC2(CC1)N=C(C1CCC(C)CC1)NC2=O (centres unmarked) [Compound 695]	78%
O=C(Cc1cnc[nH]1)N1CCCC(C2=NC3(CCN(S(=O)(=O)CCc4cccc5ccccc45)CC3)C(=O)N2)C1 (centres unmarked) [Compound 432]	5.1%
